Data provenance is ChEMBL document CHEMBL1156718.

- Test system: Mus musculus
- Assay Protocol: Effect on alkaline phosphatase activity in Swiss A mouse xenografted with mouse Ehrlich ascites carcinoma cells assessed as umole of PNPP hydrolysed per minute per decilitre of serum at 1 mg/kg, ip administered five doses in alternate days measured after 16 days relative to control
- Format: functional
- Parameters: unit: umol/min/dL
- Details: route intraperitoneal
A collection of compounds and their measured Activity
The answer should be a number; do not append a unit.

See these solved cases before continuing.
Compound	Activity
COc1cc(C)cc2c1C(=O)C=C(c1c(C)cc3c(c1OC)C(=O)C(N)=CC3=O)C2=O	4.4
COc1cc(C)cc2c1C(=O)C(N)=C(c1c(C)cc3c(c1OC)C(=O)C(N)=CC3=O)C2=O	4.9
COc1cc(C)cc2c1C(=O)C=C(c1c(C)cc3c(c1OC)C(=O)C(NC(C)=O)=CC3=O)C2=O	5.5
CCOC(=O)CNC1=CC(=O)c2cc(C)c(C3=CC(=O)c4c(OC)cc(C)cc4C3=O)c(OC)c2C1=O	5.9
COc1cc(C)cc2c1C(=O)C=C(c1c(C)cc3c(c1OC)C(=O)C(Nc1ccc(Cl)cc1)=CC3=O)C2=O	6.4
Cc1cc(O)c2c(c1)C(=O)C(c1c(C)cc3c(c1O)C(=O)C=CC3=O)=CC2=O [DIOSPYRIN]	3.7
COc1cc(C)cc2c1C(=O)C=C(c1c(C)cc3c(c1OC)C(=O)C=CC3=O)C2=O	4.9
COc1cc(C)cc2c1C(=O)C=C(c1c(C)cc3c(c1OC)C(=O)C(Nc1ccc4ccccc4c1)=CC3=O)C2=O	5.4

Here's the next entry for you.
stdin: Look up Activity of `COc1cc(C)cc2c1C(=O)C=C(c1c(C)cc3c(c1OC)C(=O)C(NCc1ccccc1)=CC3=O)C2=O` and report it.
stdout: 3.1

---

- Tested on: Ehrlich
- Assay Protocol: Antitumor activity against mouse Ehrlich ascites carcinoma cells xenografted in Swiss A mouse assessed as inhibition of tumor growth at 1 mg/kg, ip administered five doses in alternate days measured after 16 days
- Assay type: functional
- Parameters: unit not given here
- Details: route intraperitoneal
A collection of compounds and their measured Activity
The answer should be a number; do not append a unit.

See these solved cases before continuing.
COc1cc(C)cc2c1C(=O)C=C(c1c(C)cc3c(c1OC)C(=O)C(NC(C)=O)=CC3=O)C2=O 3.3
COc1cc(C)cc2c1C(=O)C=C(c1c(C)cc3c(c1OC)C(=O)C(Nc1ccc4ccccc4c1)=CC3=O)C2=O 2.9
COc1cc(C)cc2c1C(=O)C=C(c1c(C)cc3c(c1OC)C(=O)C(Nc1ccc(Cl)cc1)=CC3=O)C2=O 2.7

Here's the next entry for you.
stdin: Enter Activity (test system Ehrlich) for `COc1cc(C)cc2c1C(=O)C=C(c1c(C)cc3c(c1OC)C(=O)C(N)=CC3=O)C2=O`
stdout: 3.4
